Test: Pharmacokinetics of YC-001 in mouse plasma
Assay type: in vivo, C57BL/6 mice
Conditions: C57BL/6J, mouse, plasma, intraperitoneal, 200 mg kg^−1 bw; estimated from T1/2 and C0; read-out: elimination rate constant (Ke) (converted)
reported-endpoint: k el (s⁻¹)
Hi! Could you send only the number? It should be in s⁻¹, unit omitted.

Query O=C1OCC(c2ccc(Cl)s2)=C1c1cccs1 yields k el of 0.000335

====

Biological target: rod opsin (Mus musculus)
Construct: expressed in transfected cells
Test: cAMP quantification assay in NIH3T3-(WT-opsin/GFP) cells with forskolin
Type: cell-based
Settings: YC-001 with 1 μM 9-cis-retinal, under light; read-out: EC50, increase in cAMP levels
reported-endpoint: EC50 (µM)
Hi! Could you send only the number? It should be in µM, unit omitted.

Query O=C1OCC(c2ccc(Cl)s2)=C1c1cccs1 yields EC50 of 29.9

====

Target: mouse P23H opsin (Mus musculus, UniProt P15409, P23H)
Construct: expressed in transfected cells
Test: High-content imaging analysis of P23H opsin immunostaining in NIH3T3-(P23H opsin/GFP) cells
Format: cell-based
Conditions: whole-cell immunostaining, Fig. 2l; read-out: EC50, Opsin ratio PM-to-total
reported-endpoint: EC50 (nM)
Hi! Could you send only the number? It should be in nM, unit omitted.

Tested system mouse P23H opsin (Mus musculus, UniProt P15409, P23H); EC50 recorded for CC1=C(/C=C/C(C)=C\C=C\C(C)=C\C=O)C(C)(C)CCC1 [9-cis-retinal, reference compound] was 1210

====

Molecular target: mouse P23H opsin (Mus musculus, UniProt P15409, P23H)
Construct: expressed in transfected cells
Assay: High-content imaging analysis of P23H opsin immunostaining in NIH3T3-(P23H opsin/GFP) cells
Format: cell-based
Settings: ratio of P23H rod opsin fluorescence on plasma membrane to whole cell; read-out: Immunostaining HCS MEM-Total ratio EC50
# note: exactly 2 µM is not below, so it is No; use Yes for EC50 strictly under it

O=C(Cn1c2c(c(=O)n(C3CCCCC3)c1=O)CCC2)Nc1cccc(F)c1 [Compound F5111-0031]; No
O=C(NCCn1ncc2c(NCc3ccco3)ncnc21)c1cc(-c2ccccc2)on1 [Compound F2902-1134]; No
Cc1cc(OCC(=O)Nc2cc(N3CCOCC3)ncn2)cc(C)c1Cl [Compound F6257-1860]; Yes

In the following, a different molecule is considered.
Below 2 µM on EC50? Entry COCCNC(=O)c1sc2c(cnc3ccc(OC)cc32)c1-c1ccccc1 [Compound F3382-5924] No

====

Target: P23H opsin (Mus musculus, UniProt P15409, P23H)
Construct: expressed in transfected cells
Test: Immunoblot of P23H opsin glycosylation in NIH3T3 cell lysates
Format: cell-based
Set-up: key: n = no; y = yes
Settings: P23H opsin
reported-endpoint: Improved glycosylation

O=C(NCCn1ncc2c(NCc3ccco3)ncnc21)c1cc(-c2ccccc2)on1; n
COCCNC(=O)c1sc2c(cnc3ccc(OC)cc32)c1-c1ccccc1; y
Cc1cc(OCC(=O)Nc2cc(N3CCOCC3)ncn2)cc(C)c1Cl; n

====

Molecular target: mouse P23H-opsin mutant (Mus musculus, UniProt P15409, P23H)
Assay: β-Gal fragment complementation assay: rescue of P23H opsin transport from ER to plasma membrane, U2OS(PLC-EA/P23H-PK) cells
Type: cell-based
Details: modifications linked to C3 of the furan-2(5H)-one ring; 10 doses 0.156-80 µM; read-out: Potency EC50
Each entry below lists one item and its recorded pEC50 value.
The scale used: pEC50 is minus the common logarithm of the concentration in molar units.

Answered examples (3):
COc1ccc(C2=C(c3ccc(Cl)s3)COC2=O)cc1; 5.15
O=C1OCC(c2ccc(Cl)s2)=C1c1ccccn1; 4.72
O=C1OCC(c2ccc(Cl)s2)=C1c1cccc(F)c1; 5.13

Query O=C1OCC(c2ccc(Cl)s2)=C1c1ccsc1 yields pEC50 of 4.96

Query O=C1OCC(c2ccc(Cl)s2)=C1c1ccc(Cl)cc1Cl yields pEC50 of 5.27
